# Test system: HT-29
# assay method text: Cytostatic activity against human HT-29 cells preincubated for 24 hrs under serum free condition followed by compound washout and further incubation for 48 hrs in presence of serum by MTT assay
# Type: functional, cell-based
Where a SMILES comes first, the peptide text is derived from it. The star is where a group is joined. X1 = COc1cccc2c1C(=O)c1c(O)c3c(c(O)c1C2=O)C[C@@](O)(/C(C)=N/OCC(=O)*)C[C@@H]3O[C@H]1C[C@H](N)[C@H](O)[C@H](C)O1
Measured IC50, listed per entry for reference.
readout type: IC50

COc1cccc2c1C(=O)c1c(O)c3c(c(O)c1C2=O)C[C@@](O)(C(C)=O)C[C@@H]3O[C@H]1C[C@H](N)[C@H](O)[C@H](C)O1 : 0.203 µM
COc1cccc2c1C(=O)c1c(O)c3c(c(O)c1C2=O)C[C@@](O)(/C(C)=N/OCC(=O)N[C@@H](CC(C)C)C(=O)N[C@@H](CCCNC(=N)N)C(=O)N[C@@H](CCCNC(=N)N)C(=O)N[C@@H](Cc1ccc(O)cc1)C(=O)N[C@H](C(=O)N[C@@H](Cc1cnc[nH]1)C(=O)N[C@@H](CC(C)C)C(=O)NCC(=O)N[C@@H](Cc1ccc(O)cc1)C(=O)N[C@@H](C)C(=O)N[C@@H](C)C(N)=O)C(C)C)C[C@@H]3O[C@H]1C[C@H](N)[C@H](O)[C@H](C)O1 (X1-LRRYVHLGYAA-NH2) : 70.9 µM
COc1cccc2c1C(=O)c1c(O)c3c(c(O)c1C2=O)C[C@@](O)(/C(C)=N/OCC(=O)N[C@@H](CC(C)C)C(=O)N[C@@H](CCCNC(=N)N)C(=O)N[C@@H](CCCNC(=N)N)C(=O)N[C@@H](Cc1ccc(O)cc1)C(=O)N[C@H](C(=O)N[C@@H](Cc1cnc[nH]1)C(=O)N[C@@H](CC(C)C)C(=O)N[C@H](C(=O)N[C@@H](Cc1ccc(O)cc1)C(=O)N[C@@H](C)C(=O)N[C@H](C(N)=O)[C@@H](C)O)[C@@H](C)O)C(C)C)C[C@@H]3O[C@H]1C[C@H](N)[C@H](O)[C@H](C)O1 (X1-LRRYVHLTYAT-NH2) : 21.7 µM
COc1cccc2c1C(=O)c1c(O)c3c(c(O)c1C2=O)C[C@@](O)(/C(C)=N/OCC(=O)N[C@@H](CC(C)C)C(=O)N[C@@H](CCCNC(=N)N)C(=O)N[C@@H](CCCNC(=N)N)C(=O)N[C@@H](Cc1ccc(O)cc1)C(=O)N[C@H](C(=O)N[C@@H](Cc1cnc[nH]1)C(=O)N[C@@H](CC(C)C)C(=O)N[C@@H](CO)C(=O)N[C@@H](Cc1ccc(O)cc1)C(=O)N[C@@H](C)C(=O)N[C@H](C(N)=O)[C@@H](C)O)C(C)C)C[C@@H]3O[C@H]1C[C@H](N)[C@H](O)[C@H](C)O1 (X1-LRRYVHLSYAT-NH2) : 24.8 µM
COc1cccc2c1C(=O)c1c(O)c3c(c(O)c1C2=O)C[C@@](O)(/C(C)=N/OCC(=O)N[C@@H](CC(C)C)C(=O)N[C@@H](CCCNC(=N)N)C(=O)N[C@@H](CCCNC(=N)N)C(=O)N[C@@H](Cc1ccc(O)cc1)C(=O)N[C@H](C(=O)N[C@@H](Cc1cnc[nH]1)C(=O)N[C@@H](CC(C)C)C(=O)N[C@@H](Cc1ccccc1)C(=O)N[C@@H](Cc1ccc(O)cc1)C(=O)N[C@@H](CCCCN)C(=O)N[C@H](C(N)=O)[C@@H](C)O)C(C)C)C[C@@H]3O[C@H]1C[C@H](N)[C@H](O)[C@H](C)O1 (X1-LRRYVHLFYKT-NH2) : 11.5 µM
